# CC50 listing for each entry below
test: Cytotoxicity against Influenza A virus (A/Viet Nam/1203/2004(H5N1)) infected MDCK cells; format: cell-based, Canis lupus familiaris; details: dog
Express your answer in µM, writing the number without its unit.

Below, 3 molecules whose answers are already recorded.
# cpd_smiles, endpoint_unit, CC50
data = [
    ("COC(=O)[C@]1(C)CCC[C@]2(C)[C@H]3CC4C(C(C)C)=C[C@]3(CC[C@H]21)[C@@H]1NC(=O)CC[C@H](O)[C@H]41", "µM", 28),
    ("COC(=O)[C@]1(C)CCC[C@]2(C)[C@H]3C[C@H]4C(C(C)C)=C[C@]3(CC[C@H]21)[C@@H]1C(=O)[C@H]2O[C@H]2C(=O)[C@@H]14", "µM", 3.3),
    ("CC(C)C1=C[C@]23CC[C@@H]4[C@](C)(CCC[C@@]4(C)C(=O)O)[C@H]2C[C@H]1[C@H]1C(=O)OC(=O)[C@H]13", "µM", 35),
]

Req: GET /values?readout=CC50&item= COC(=O)[C@]1(C)CCC[C@]2(C)[C@H]3C[C@H]4C(C(C)C)=C[C@]3(CC[C@H]21)[C@@H]1C(=O)CCC2(OCCO2)[C@@H]14
Resp: 24

---

assay: Antiviral activity against Influenza A virus (A/California/07/2009(H1N1)) infected in MDCK cells; type: functional, cell-based
pEC50: −log10 of the molar value.
Record true (1) whenever pEC50 is at 5 or higher; record false (0) when lower.

The examples below pair each entry with its known result.
# compound, assigned_category
data = [
    ("COC(=O)[C@]1(C)CCC[C@]2(C)[C@H]3C[C@H]4C(C(C)C)=C[C@]3(CC[C@H]21)[C@@H]1C(=O)CC[C@H](OCCC#N)[C@@H]14", "false (0)"),
    ("COC(=O)[C@]1(C)CCC[C@]2(C)[C@H]3C[C@H]4C(C(C)C)=C[C@]3(CC[C@H]21)[C@@H]1C(=O)CC[C@H](OC(=O)c2cccnc2)[C@@H]14", "false (0)"),
    ("COC(=O)[C@]1(C)CCC[C@]2(C)[C@H]3C[C@H]4C(C(C)C)=C[C@]3(CC[C@H]21)[C@@H]1C(=O)CCC(=O)[C@@H]14", "false (0)"),
    ("COC(=O)[C@H](C)NC(=O)[C@]1(C)CCC[C@]2(C)[C@H]3C[C@H]4C(C(C)C)=C[C@]3(CC[C@H]21)[C@@H]1C(=O)OC(=O)[C@@H]14", "false (0)"),
    ("COC(=O)[C@]12CCC(=O)[C@H]1[C@@]13C=C(C(C)C)[C@@H]2C[C@@H]1[C@@]1(C)CCC[C@@](C)(C(=O)OC)[C@@H]1CC3", "false (0)"),
]

Req: Would you say COC(=O)[C@]1(C)CCC[C@]2(C)[C@H]3C[C@@H]4[C@@H]5[C@H]6[C@H](OC(C)=O)CC[C@@H]5OC4(C(C)C)C[C@]63CC[C@H]21 shows pEC50 at minimum 5?
Resp: true (1)

Req: Please answer likewise for COC(=O)[C@]1(C)CCC[C@]2(C)[C@H]3C[C@H]4C(C(C)C)=C[C@]3(CC[C@H]21)[C@H]1[C@@H]4[C@@H](OC(=O)/C=C/c2ccccc2)CC[C@@H]1OC(=O)C=Cc1ccccc1
Resp: false (0)

Req: Consider next the compound COC(=O)[C@]1(C)CCC[C@]2(C)[C@H]3C[C@H]4C(C(C)C)=C[C@]3(CC[C@H]21)[C@@H]1C(=O)[C@H]2O[C@H]2C(=O)[C@@H]14 in the same way.
Resp: false (0)

Req: Same for COC(=O)[C@H]1[C@@H](C(=O)OC)[C@@]23C=C(C(C)C)[C@@H]1C[C@@H]2[C@@]1(C)CCC[C@@](C)(C(=O)OC)[C@@H]1CC3
Resp: true (1)

Req: Next: COC(=O)[C@H]1[C@@H](C(=O)OC)C2(C(=O)OC)CC[C@@H]3[C@](C)(CCC[C@@]3(C)C(=O)OC)[C@H]2C[C@H]1C(=O)C(C)C (stereo partly drawn)
Resp: false (0)

---

assay: Toxicity against human Huh7ET cells assessed as reduction in beta-actin RNA levels at 20 uM; format: cell-based, Huh-7; details: Huh7ET cells, values are per cent of control
# response, % of control at 20 µM listing for each entry below
Return type: number; implicit unit %.

# cpd_smiles, endpoint_unit, recorded_measurement
rows = [
    ("COC(=O)[C@]1(C)CCC[C@]2(C)[C@H]3CC4C(C(C)C)=C[C@]3(CC[C@H]21)[C@@H]1NC(=O)CC[C@H](O)[C@H]41", "%", 102),
    ("COC(=O)[C@]1(C)CCC[C@]2(C)[C@H]3C[C@H]4C(C(C)C)=C[C@]3(CC[C@H]21)[C@H]1[C@@H]4[C@@H](OC(=O)CCC(=O)O)CC[C@@H]1OC(=O)CCC(=O)O", "%", 6.4),
]

Now consider the entry below.
Req: Given COC(=O)[C@]1(C)CCC[C@]2(C)[C@H]3C[C@H]4C(C(C)C)=C[C@]3(CC[C@H]21)[C@@H]1/C(=N/O)CCC2(OCCO2)[C@@H]14 , state its recorded response, % of control at 20 µM.
Resp: 0.2

---

assay: Cytotoxicity against Influenza A virus (A/Brisbane/10/2007(H3N2)) infected MDCK cells; format: cell-based, Canis lupus familiaris; details: dog
So basically: is CC50 under 30 µM? Then Fulfilled. Not under? Then Not fulfilled.

Completed entries (count: 8):
# compound, assigned_category
records = [
    ("COC(=O)[C@]1(C)CCC[C@]2(C)[C@H]3C[C@H]4C(C(C)C)=C[C@]3(CC[C@H]21)[C@@H]1C(=O)CCC(=O)[C@@H]14", "Not fulfilled"),
    ("COC(=O)[C@]1(C)CCC[C@]2(C)[C@H]3CC4C(C(C)C)=C[C@]3(CC[C@H]21)[C@@H]1NC(=O)CC[C@H](O)[C@H]41", "Fulfilled"),
    ("COC(=O)[C@]1(C)CCC[C@]2(C)[C@H]3C[C@@H]4[C@H]5[C@@H]6CCC(=O)[C@H]5[C@@]3(CC[C@H]21)CC4(C(C)C)O6", "Not fulfilled"),
    ("COC(=O)[C@]12CC[C@H](O)[C@H]1[C@@]13C=C(C(C)C)[C@@H]2C[C@@H]1[C@@]1(C)CCC[C@@](C)(C(=O)OC)[C@@H]1CC3", "Fulfilled"),
    ("CC(C)C1=C[C@@]23CC[C@H]4[C@](C)(CO)CCC[C@]4(C)[C@H]2C[C@@H]1[C@@H]1[C@H]3[C@@H](O)CC[C@@H]1O", "Not fulfilled"),
    ("CC(C)C1=C[C@]23CC[C@@H]4[C@](C)(CCC[C@@]4(C)C(=O)O)[C@H]2C[C@H]1[C@H]1C(=O)OC(=O)[C@H]13", "Not fulfilled"),
    ("COC(=O)[C@]1(C)CCC[C@]2(C)[C@H]3C[C@H]4C(C(C)C)=C[C@]3(CC[C@H]21)[C@@H]1C(=O)CC[C@H](O)[C@@H]14", "Not fulfilled"),
    ("COC(=O)[C@]1(C)CCC[C@]2(C)[C@H]3C[C@H]4C(C(C)C)=C[C@]3(CC[C@H]21)[C@H]1[C@@H]4[C@@H](OC(=O)/C=C/c2ccccc2)CC[C@@H]1OC(=O)C=Cc1ccccc1", "Fulfilled"),
]

Req: Determine if COC(=O)[C@]1(C)CCC[C@]2(C)[C@H]3C[C@H]4C(C(C)C)=C[C@]3(CC[C@H]21)[C@@H]1C(=O)CC[C@H](OC(=O)c2cccnc2)[C@@H]14 shows CC50 strictly lower than 30 µM.
Resp: Not fulfilled

Req: Same again, this time with COC(=O)[C@H]1[C@@H](C(=O)OC)C2(C(=O)OC)CC[C@@H]3[C@](C)(CCC[C@@]3(C)C(=O)OC)[C@H]2C[C@H]1C(=O)C(C)C (stereo partly specified)
Resp: Not fulfilled

---

system: unidentified adenovirus; assay: Antiviral activity against Adenovirus Chicago 65089 infected in human A549 cells; format: functional, organism-based; conditions: Chicago 65089, A549
endpoint_name: EC50

# compound, endpoint_name, recorded_measurement
measured = [
    ("COC(=O)[C@]1(C)CCC[C@]2(C)[C@H]3C[C@H]4C(C(C)C)=C[C@]3(CC[C@H]21)[C@H]1[C@@H]4[C@@H](OC(=O)CCC(=O)O)CC[C@@H]1OC(=O)CCC(=O)O", "EC50", "> 10 µM"),
    ("COC(=O)[C@H]1[C@@H](C(=O)OC)C2(C(=O)OC)CC[C@@H]3[C@](C)(CCC[C@@]3(C)C(=O)OC)[C@H]2C[C@H]1C(=O)C(C)C (stereo not given in full)", "EC50", "32 µM"),
    ("COC(=O)[C@]1(C)CCC[C@]2(C)[C@H]3CC4C(C(C)C)=C[C@]3(CC[C@H]21)[C@@H]1NC(=O)CC[C@H](O)[C@H]41", "EC50", "> 29 µM"),
    ("COC(=O)[C@H](C)NC(=O)[C@]1(C)CCC[C@]2(C)[C@H]3C[C@H]4C(C(C)C)=C[C@]3(CC[C@H]21)[C@@H]1C(=O)CCC(=O)[C@@H]14", "EC50", "> 47 µM"),
]

We next turn to a different compound, shown below.
Req: Find the recorded EC50 belonging to COC(=O)[C@]1(C)CCC[C@]2(C)[C@H]3C[C@H]4C(C(C)C)=C[C@]3(CC[C@H]21)[C@@H]1/C(=N/O)CCC2(OCCO2)[C@@H]14 and report it.
Resp: > 9.8 µM
